Every entry's value here was drawn from patent US20250270315A1.

Assayed System: T1, human SIRPβ stably expressed on CHOK1 cells (human, UniProt O00241 30-398)
T1 construct: whole, on cells; also called CHOK1-human SIRPB; CHOK1-hSIRPβ
T1 sequence (O00241 30-398): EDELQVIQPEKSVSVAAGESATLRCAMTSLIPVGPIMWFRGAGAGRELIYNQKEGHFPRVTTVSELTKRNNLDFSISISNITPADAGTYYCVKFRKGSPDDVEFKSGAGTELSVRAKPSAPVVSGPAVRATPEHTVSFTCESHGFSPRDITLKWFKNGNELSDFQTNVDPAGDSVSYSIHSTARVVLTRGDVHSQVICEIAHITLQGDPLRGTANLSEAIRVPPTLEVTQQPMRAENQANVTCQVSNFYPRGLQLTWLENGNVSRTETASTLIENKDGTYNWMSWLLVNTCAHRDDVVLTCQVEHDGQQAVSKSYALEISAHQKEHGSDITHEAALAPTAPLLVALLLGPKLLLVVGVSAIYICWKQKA
Assay Remarks: FACS, CHOK1-hSIRPβ cells (columns c6 and c7 read as swapped)
Measurement Type: pEC50
Convention used: pEC50 is expressed as -log10 of the molar concentration.

# Binder, Measurement Type, Numeric Result
data = [
    ("hu025.059 (antibody, V domains shown, Humanized 025; also called hu025.59) VH: EVQLVQSGAEVKKPGATVKISCKASGFNIKDYYMHWVQQAPGKGLEWIGRIDPEDAETKYAPKFQGRVTITADTSTNTAYMELSSLRSEDTAVYYCDRGLAYWGQGTLVTVSS VL: EIVLTQSPATLSLSPGERATLSCSASSSVSSSYLYWYQQKPGQAPKLWIYSTSNLASGIPARFSGSGSGTDYTLTISSLEPEDFAVYYCHQWSSYPYTFGQGTKLEIK", "pEC50", 9.17),
    ("hu025.021 (antibody, V domains shown, Humanized 025; also called hu025.21) VH: EVQLVQSGAEVKKPGATVKISCKVSGFNIKDYYMHWVQQAPGKGLEWIGRIDPEDAETKYAPKFQGRVTITADTSTNTAYMELSSLRSEDTAVYYCDRGLAYWGQGTLVTVSS VL: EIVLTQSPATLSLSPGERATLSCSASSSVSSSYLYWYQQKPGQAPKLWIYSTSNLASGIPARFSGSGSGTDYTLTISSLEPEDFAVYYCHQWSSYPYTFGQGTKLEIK", "pEC50", 9.17),
]

Proceeding to the next binder to report its pEC50.
Q: // fetch pEC50 given entry hu025.023 (antibody, V domains shown, Humanized 025; also called hu025.23) VH: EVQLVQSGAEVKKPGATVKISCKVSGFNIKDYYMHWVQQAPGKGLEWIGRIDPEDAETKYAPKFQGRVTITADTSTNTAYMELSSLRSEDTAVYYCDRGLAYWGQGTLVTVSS VL: EIVLTQSPATLSLSPGERATLSCSASSSVSSSYLYWYQQKPGQAPKLWIYSTSNLASGIPARFSGSGSGTDFTLTISSLEPEDFAVYYCHQWSSYPYTFGQGTKLEIK
Ans: 9.18
